- studySystem: IRAK4 (Homo sapiens (Human))
- Sequence (Q9NWZ3 whole entry): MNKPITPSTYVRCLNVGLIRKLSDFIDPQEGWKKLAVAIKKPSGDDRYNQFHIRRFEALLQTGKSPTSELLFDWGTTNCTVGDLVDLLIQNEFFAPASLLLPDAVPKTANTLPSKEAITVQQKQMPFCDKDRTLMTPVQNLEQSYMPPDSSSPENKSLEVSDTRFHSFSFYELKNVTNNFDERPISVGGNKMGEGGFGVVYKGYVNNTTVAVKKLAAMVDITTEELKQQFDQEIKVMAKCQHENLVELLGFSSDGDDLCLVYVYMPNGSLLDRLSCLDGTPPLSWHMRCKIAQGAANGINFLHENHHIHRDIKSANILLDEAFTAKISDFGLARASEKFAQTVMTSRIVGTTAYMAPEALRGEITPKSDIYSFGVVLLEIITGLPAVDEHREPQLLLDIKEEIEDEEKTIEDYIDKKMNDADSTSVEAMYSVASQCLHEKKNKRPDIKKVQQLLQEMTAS
- measurementProtocol: IRAK4 kinase activity, IMAP fluorescence polarization assay
- Type: biochemical
- condition: 100 μM ATP, 0.5 nM GST tagged IRAK4; read-out: IRAK4 IC50
readoutType: IC50 (nM)

Below, 3 molecules whose answers are already recorded.
>>> valuereported("O=c1[nH]c(N2CCCC2)nc(N[C@@H]2C[C@H](CO)[C@@H](O)[C@H]2O)c1-c1nc2ccccc2s1 [Example 25]")
18
>>> valuereported("O=c1[nH]c(N2CCCC2)nc(N[C@@H]2CCCNC2)c1-c1ccc2ccccc2n1 [Example 114]")
24
>>> valuereported("O=c1[nH]c(N2CCOCC2)nc(N[C@@H]2CCCNC2)c1-c1ccc2ccccc2n1 [Example 93]")
26

1: O=c1[nH]c(N2CCOCC2)nc(N[C@@H]2CCCNC2)c1-c1nc2ccc(F)cc2s1 [Example 112]
2: O=c1[nH]c(Nc2ccccc2)nc(N[C@@H]2C[C@H](CO)[C@@H](O)[C@H]2O)c1-c1nc2ccccc2s1 [Example 53]
3: NC(=O)c1ccc2sc(-c3c(N[C@@H]4CCCNC4)nc(N4CCOCC4)[nH]c3=O)nc2c1 [Example 347]
4: O=c1[nH]c(N2CCOCC2)nc(N[C@@H]2C[C@H](CO)[C@@H](O)[C@H]2O)c1-c1nc(-c2ccc(F)cc2)cs1 [Example 58]
Challenge: Hey, can you sort those molecules up there by IC50, smallest first? Reply with the item labels sorted in the order that was asked for.
Response given: 4, 3, 1, 2
(4: 5.6 nM, 3: 10 nM, 1: 46 nM, 2: 327 nM)
